target of assay: Vasopressin V1a/V2 (Homo sapiens) (UniProt P30518+P37288)
Sequence (P37288 whole entry, looked up, one chain of several): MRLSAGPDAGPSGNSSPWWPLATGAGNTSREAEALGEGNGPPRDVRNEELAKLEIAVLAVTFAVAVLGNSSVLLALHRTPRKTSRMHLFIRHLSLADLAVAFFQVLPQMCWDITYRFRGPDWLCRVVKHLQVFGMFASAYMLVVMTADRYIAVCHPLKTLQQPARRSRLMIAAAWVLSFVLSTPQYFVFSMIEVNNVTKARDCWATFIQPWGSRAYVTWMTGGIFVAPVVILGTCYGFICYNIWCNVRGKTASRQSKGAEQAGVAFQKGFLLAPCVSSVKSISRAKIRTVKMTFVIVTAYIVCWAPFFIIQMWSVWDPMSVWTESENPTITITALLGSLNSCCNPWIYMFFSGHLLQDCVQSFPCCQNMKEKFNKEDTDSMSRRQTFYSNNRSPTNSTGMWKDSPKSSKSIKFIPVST
procedure details: Selectivity ratio of Ki for human vasopressin V1A receptor to Ki for human vasopressin V2 receptors
measured metric: Ratio Ki
// return just the number, without any unit appended

Sample records with Ratio Ki:
INSERT INTO results (molecule_smiles, target_of_assay, number) VALUES
  ('C[C@@H]1CCN(c2ccc(C(=O)N3CCC(F)(F)/C(=C\C(=O)NCCO)c4ccccc43)c(Cl)c2)C1', 'Vasopressin V1a/V2 (Homo sapiens) (UniProt P30518+P37288)', 1),
  ('C[C@H]1CCN(c2ccc(C(=O)N3CCC(F)(F)/C(=C\C(=O)NCCO)c4ccccc43)c(Cl)c2)C1', 'Vasopressin V1a/V2 (Homo sapiens) (UniProt P30518+P37288)', 1.2),
  ('Cc1ccn(-c2ccc(C(=O)N3CCC(F)(F)/C(=C\C(=O)NCCO)c4ccccc43)c(Cl)c2)n1', 'Vasopressin V1a/V2 (Homo sapiens) (UniProt P30518+P37288)', 2.9);

Problem: What value of measured Ratio Ki is listed for C[C@@H]1CCN(c2ccc(C(=O)N3CCC(F)(F)/C(=C\C(=O)NCCO)c4ccccc43)c(C(F)(F)F)c2)C1 ?
Solution: 2.4

Problem: What value of measured Ratio Ki is listed for C[C@H]1CCN(c2ccc(C(=O)N3CCC(F)(F)/C(=C\C(=O)NCCO)c4ccccc43)c(C(F)(F)F)c2)C1 ?
Solution: 3.1

Problem: What value of measured Ratio Ki is listed for Cc1ccn(-c2ccc(C(=O)N3CCC(F)(F)/C(=C\C(=O)NCCO)c4ccccc43)c(C(F)(F)F)c2)n1 ?
Solution: 2.2

====

target of assay: Vasopressin V2 receptor (Homo sapiens)
procedure details: Agonist activity at human vasopressin V2 receptor expressed in CHO cells assessed as cAMP accumulation by HTRF assay
Catalogue of pEC50 values
When answering, recall that pEC50 equals minus log10 of the concentration in mol/L, and write that number alone.

Sample records with pEC50:
INSERT INTO measurements (molecule_smiles, number) VALUES
  ('C[C@@H]1CCN(c2ccc(C(=O)N3CCC(F)(F)/C(=C\C(=O)NCCO)c4ccccc43)c(Cl)c2)C1', 9.00),
  ('Cc1ccn(-c2ccc(C(=O)N3CCC(F)(F)/C(=C\C(=O)NCCO)c4ccccc43)c(C(F)(F)F)c2)n1', 8.62);

Problem: What value of measured pEC50 is listed for C[C@H]1CCN(c2ccc(C(=O)N3CCC(F)(F)/C(=C\C(=O)NCCO)c4ccccc43)c(C(F)(F)F)c2)C1 ?
Solution: 9.00

Problem: What value of measured pEC50 is listed for C[C@@H]1CCN(c2ccc(C(=O)N3CCC(F)(F)/C(=C\C(=O)NCCO)c4ccccc43)c(C(F)(F)F)c2)C1 ?
Solution: 9.00

Problem: What value of measured pEC50 is listed for C[C@H]1CCN(c2ccc(C(=O)N3CCC(F)(F)/C(=C\C(=O)NCCO)c4ccccc43)c(Cl)c2)C1 ?
Solution: 9.01

====

target of assay: Vasopressin V2 receptor (Homo sapiens)
measured metric: pKi
When answering, recall that pKi equals minus log10 of the concentration in mol/L, and write that number alone.

Problem: Under Vasopressin V2 receptor (Homo sapiens): pKi value of C[C@@H]1CCN(c2ccc(C(=O)N3CCC(F)(F)/C(=C\C(=O)NCCO)c4ccccc43)c(C(F)(F)F)c2)C1 ?
Solution: 7.80

====

target of assay: Vasopressin V2 receptor (Homo sapiens, UniProt P30518)
Sequence (P30518 whole entry): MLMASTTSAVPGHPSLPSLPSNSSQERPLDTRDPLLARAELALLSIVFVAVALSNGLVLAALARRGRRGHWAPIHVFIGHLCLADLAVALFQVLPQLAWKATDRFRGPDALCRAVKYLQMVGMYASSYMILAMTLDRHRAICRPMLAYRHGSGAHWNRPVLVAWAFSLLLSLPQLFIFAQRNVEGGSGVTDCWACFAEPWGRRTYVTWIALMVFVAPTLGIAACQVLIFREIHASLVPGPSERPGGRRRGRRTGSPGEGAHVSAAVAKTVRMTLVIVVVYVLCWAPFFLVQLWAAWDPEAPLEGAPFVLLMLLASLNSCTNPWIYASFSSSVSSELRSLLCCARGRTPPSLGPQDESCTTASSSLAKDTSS
procedure details: Intrinsic activity at human vasopressin V2 receptor expressed in CHO cells assessed as cAMP accumulation by HTRF assay relative to AVP
Assay type: functional, cell-based
measured metric: Intrinsic activity (%)
Field format: number, assumed %, no unit text.

INSERT INTO assay_data (molecule_smiles, number) VALUES
  ('C[C@H]1CCN(c2ccc(C(=O)N3CCC(F)(F)/C(=C\C(=O)NCCO)c4ccccc43)c(C(F)(F)F)c2)C1', 111),
  ('C[C@H]1CCN(c2ccc(C(=O)N3CCC(F)(F)/C(=C\C(=O)NCCO)c4ccccc43)c(Cl)c2)C1', 109),
  ('C[C@@H]1CCN(c2ccc(C(=O)N3CCC(F)(F)/C(=C\C(=O)NCCO)c4ccccc43)c(C(F)(F)F)c2)C1', 114),
  ('Cc1ccn(-c2ccc(C(=O)N3CCC(F)(F)/C(=C\C(=O)NCCO)c4ccccc43)c(Cl)c2)n1', 93.9),
  ('C[C@@H]1CCN(c2ccc(C(=O)N3CCC(F)(F)/C(=C\C(=O)NCCO)c4ccccc43)c(Cl)c2)C1', 118);

Please turn your attention to the following entry.
Problem: What value of measured Intrinsic activity is listed for Cc1ccn(-c2ccc(C(=O)N3CCC(F)(F)/C(=C\C(=O)NCCO)c4ccccc43)c(C(F)(F)F)c2)n1 ?
Solution: 115
